Biological target: T1, recombinant human HGF (R&D Systems, Catalog No. 294-HGN-025) (human, UniProt P14210 32-728)
T1 construct: Mature HGF is a disulfide-linked heterodimer of alpha and beta chain cut from one precursor; also called rhHGF (R&D Systems); rhHGF
T1 sequence (P14210 32-728 limits assumed): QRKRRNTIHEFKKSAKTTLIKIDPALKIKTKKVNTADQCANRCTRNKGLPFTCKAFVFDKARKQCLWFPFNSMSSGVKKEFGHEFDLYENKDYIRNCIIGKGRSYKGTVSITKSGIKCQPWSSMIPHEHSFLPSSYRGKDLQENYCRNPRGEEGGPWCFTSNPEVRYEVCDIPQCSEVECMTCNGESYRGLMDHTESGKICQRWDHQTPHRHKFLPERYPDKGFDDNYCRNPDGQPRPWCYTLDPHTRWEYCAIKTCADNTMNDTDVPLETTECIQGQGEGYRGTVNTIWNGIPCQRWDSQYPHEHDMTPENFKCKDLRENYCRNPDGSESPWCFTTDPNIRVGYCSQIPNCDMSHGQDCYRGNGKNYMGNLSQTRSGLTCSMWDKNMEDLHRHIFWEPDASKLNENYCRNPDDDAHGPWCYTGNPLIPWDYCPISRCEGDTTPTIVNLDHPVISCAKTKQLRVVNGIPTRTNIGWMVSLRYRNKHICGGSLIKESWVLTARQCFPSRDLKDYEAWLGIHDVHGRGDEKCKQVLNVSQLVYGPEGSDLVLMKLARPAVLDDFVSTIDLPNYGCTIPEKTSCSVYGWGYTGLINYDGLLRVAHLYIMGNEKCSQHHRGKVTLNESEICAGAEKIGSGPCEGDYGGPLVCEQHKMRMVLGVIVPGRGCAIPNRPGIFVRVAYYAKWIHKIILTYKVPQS
Test: SPR, captured antibody, HGF injected, 25 C

- binder: "HE2B8-1 (LR2B8HC + IgG1 constant region G1m(3) allotype allele 1, plus LR2B8LC + Kappa constant region Km(3) allotype allele 1) (antibody, V domains shown, Human Engineered 2B8 variant, human IgG1 kappa, made in HEK293E cells) VH: QVQLVQPGAEVVKPGTSVKLSCKASGYTFTTYWMHWVNQAPGQGLEWIGEINPTNGHTNYNEKFKGKATLTVDKSTSTAYMELSSLRSEDTAVYYCARNYVGSIFDYWGQGTLLTVSS VL: DIVMTQSPDSMAMSVGERVTLNCKASENVVSYVSWYQQKPGQSPKLLIYGASNRNTGVPDRFSGSGSATDFTLTISSVQAEDVADYHCGQSYNYPYTFGQGTKLEIKR"
  koff / s⁻¹: "1.4e-05"
